# STUDY_SYSTEM: METTL3/METTL14 (Homo sapiens)
# ASSAY_DETAILS: METTL3-14 standard enzyme assay (3H-SAM flashplate scintillation)
# Assay type: biochemical
# CONDITION_DETAILS: METTL3/METTL14 2.5 nM, RNA 100 nM, 3H-SAM 100 nM, 30 min

{"COMPOUND": "CCc1cc(NCCOC)c2c(F)cc(OCc3cncc(-n4cc(C5CCCO5)c5c(N)ncnc54)n3)cc2n1 (stereo not shown)", "IC50": "> 1 µM"}
{"COMPOUND": "CNc1ccc2ccc(OCc3cccc(-n4cc(Cl)c5c(N)ncnc54)n3)cc2n1", "IC50": "0.01 to 0.1 µM"}
{"COMPOUND": "CN(C)CCNc1cc(C2CCC2)nc2cc(OCc3cncc(-n4ccc5c(N)ncnc54)c3)ccc12", "IC50": "< 0.01 µM"}
{"COMPOUND": "CC(C)(C)c1cc(N)c2ccc(OCc3cncc(-n4ccc5c(N)ncnc54)c3)cc2n1", "IC50": "< 0.01 µM"}

###

# System: MOLM-13 cells
# ASSAY_DETAILS: MOLM-13 96 Hour cell proliferation assay (Cell Titer-Glo)
# Assay type: cell-based
# CONDITION_DETAILS: Homo sapiens
pIC50: −log10 of the molar value.

{"SMILES_STR": "CCc1cc(N(C)C2CC2)c2ccc(OCc3cncc(-n4cc([C@@H]5CCCO5)c5c(N)ncnc54)c3)cc2n1", "pIC50": "> 6.00"}
{"SMILES_STR": "CCNc1ccc2ccc(CCc3cncc(-n4cc([C@H]5CCCO5)c5c(N)ncnc54)c3)cc2n1", "pIC50": "5.00 to 6.00"}
{"SMILES_STR": "CNc1ccc2ccc(OCc3cc(Br)cc(-n4cc(Cl)c5c(N)ncnc54)c3)cc2n1", "pIC50": "5.00 to 6.00"}
{"SMILES_STR": "CNc1ccc2ccc(OCc3cc(CO)cc(-n4ccc5c(N)ncnc54)c3)cc2n1", "pIC50": "5.00 to 6.00"}
{"SMILES_STR": "CN(CCO)c1ccc2ccc(OCc3cncc(-n4cc(-c5ccn(C)n5)c5c(N)ncnc54)c3)cc2n1", "pIC50": "> 6.00"}
{"SMILES_STR": "Cn1ccc(-c2cn(-c3cncc(CCc4ccc5cc(Br)c(N)nc5c4)c3)c3ncnc(N)c23)n1", "pIC50": "5.00 to 6.00"}
{"SMILES_STR": "CNc1ccc2ccc(OCc3cncc(-n4cc([C@@H]5CCCO5)c5c(N)ncnc54)c3)cc2n1", "pIC50": "5.00 to 6.00"}

###

# STUDY_SYSTEM: METTL3/METTL14 (Homo sapiens)
# ASSAY_DETAILS: METTL3-14 standard enzyme assay (3H-SAM flashplate scintillation)
# CONDITION_DETAILS: METTL3/METTL14 2.5 nM, RNA 100 nM, 3H-SAM 100 nM, 30 min
pIC50: −log10 of the molar value.
QUANTITY_MEASURED: pIC50

{"MOLECULE": "Cc1cc(NCCN(C)C)c2ccc(OCc3cncc(-n4cc(Cl)c5c(N)ncnc54)c3)cc2n1 [Compound I-42]", "RESULT": "7.00 to 8.00"}
{"MOLECULE": "CNc1ccc2ccc(OCc3cccc(-c4c[nH]c5c(N)ncnc45)c3)cc2n1 [Compound I-71]", "RESULT": "7.00 to 8.00"}
{"MOLECULE": "Nc1ncnc2c(-c3cncc(COc4ccc5ccc(N6CCC6)nc5c4)c3)c[nH]c12 [Compound I-190]", "RESULT": "> 8.00"}
{"MOLECULE": "CN(C)CCNC(=O)c1ccc(OCc2cncc(-n3cc(Br)c4c(N)ncnc43)c2)cc1N [Compound I-218]", "RESULT": "< 6.00"}
{"MOLECULE": "CCc1cc(NCCOC)c2c(F)cc(CCc3cncc(-n4cc(-c5ccn(C)n5)c5c(N)ncnc54)c3)cc2n1 [Compound I-228]", "RESULT": "> 8.00"}
{"MOLECULE": "Cn1ccc(-c2cn(-c3cncc(COc4ccc5ccc(N6CC7(CCC7)C6)nc5c4)c3)c3ncnc(N)c23)n1 [Compound I-194]", "RESULT": "6.00 to 7.00"}
{"MOLECULE": "CNc1ccc2ccc(OCc3cc(Br)cc(-n4cc(Cl)c5c(N)ncnc54)c3)cc2n1 [Compound I-75]", "RESULT": "6.00 to 7.00"}

###

# reported IC50; entries follow
# STUDY_SYSTEM: METTL3/METTL14 (Homo sapiens)
# ASSAY_DETAILS: METTL3-14 standard enzyme assay (3H-SAM flashplate scintillation)
# CONDITION_DETAILS: METTL3/METTL14 2.5 nM, RNA 100 nM, 3H-SAM 100 nM, 30 min

{"SMILES_STR": "CCc1cc(N2CCOCC2)c2ncc(OCc3cncc(-n4cc(-c5ccn(C)n5)c5c(N)ncnc54)c3)cc2n1", "IC50": "< 10 nM"}
{"SMILES_STR": "CNc1ccc2ccc(OCc3cccc(-n4cc(CCN(C)C)c5c(N)ncnc54)c3)cc2n1", "IC50": "100 to 1000 nM"}
{"SMILES_STR": "CNc1ccc2ccc(OCc3ccnc(-n4cc(Cl)c5c(N)ncnc54)c3)cc2n1", "IC50": "100 to 1000 nM"}
{"SMILES_STR": "CNc1ccc2ccc(OCc3cc(-n4cc(Cl)c5c(N)ncnc54)ncn3)cc2n1", "IC50": "> 1000 nM"}

###

# reported IC50; entries follow
# STUDY_SYSTEM: METTL3/METTL14 (Homo sapiens, UniProt Q86U44)
# Sequence (Q86U44 whole entry, species assumed): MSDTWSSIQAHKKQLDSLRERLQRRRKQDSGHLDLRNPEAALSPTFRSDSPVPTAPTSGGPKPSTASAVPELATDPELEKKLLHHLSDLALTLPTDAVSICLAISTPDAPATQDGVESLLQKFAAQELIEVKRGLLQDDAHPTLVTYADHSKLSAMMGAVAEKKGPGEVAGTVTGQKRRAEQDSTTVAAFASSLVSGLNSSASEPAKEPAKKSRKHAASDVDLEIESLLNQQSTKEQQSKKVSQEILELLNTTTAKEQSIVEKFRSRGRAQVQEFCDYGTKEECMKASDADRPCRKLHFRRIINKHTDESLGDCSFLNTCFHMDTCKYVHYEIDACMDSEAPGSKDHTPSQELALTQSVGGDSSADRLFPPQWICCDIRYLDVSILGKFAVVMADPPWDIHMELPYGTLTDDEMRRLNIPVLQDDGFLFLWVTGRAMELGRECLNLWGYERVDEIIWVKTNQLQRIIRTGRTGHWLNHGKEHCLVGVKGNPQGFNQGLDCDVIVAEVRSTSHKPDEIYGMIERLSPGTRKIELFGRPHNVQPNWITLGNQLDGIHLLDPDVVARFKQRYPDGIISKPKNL
# Sequence (Q9HCE5 whole entry partner, species assumed): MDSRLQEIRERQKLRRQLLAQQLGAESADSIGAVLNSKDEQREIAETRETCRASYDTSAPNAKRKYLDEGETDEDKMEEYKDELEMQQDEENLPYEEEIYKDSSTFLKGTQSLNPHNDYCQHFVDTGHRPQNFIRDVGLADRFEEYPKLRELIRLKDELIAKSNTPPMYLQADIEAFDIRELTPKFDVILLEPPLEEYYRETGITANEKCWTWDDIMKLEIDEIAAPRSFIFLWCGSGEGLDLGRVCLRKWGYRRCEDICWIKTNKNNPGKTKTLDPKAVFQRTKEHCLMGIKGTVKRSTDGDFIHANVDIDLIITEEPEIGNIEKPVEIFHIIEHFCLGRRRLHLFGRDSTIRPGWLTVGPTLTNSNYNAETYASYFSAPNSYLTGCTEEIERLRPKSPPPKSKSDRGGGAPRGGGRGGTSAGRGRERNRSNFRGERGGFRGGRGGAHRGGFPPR
# ASSAY_DETAILS: METTL3-14 standard enzyme assay (3H-SAM flashplate scintillation)
# CONDITION_DETAILS: METTL3/METTL14 2.5 nM, RNA 100 nM, 3H-SAM 100 nM, 30 min

{"SMILES_STR": "Nc1nc2cc(OCc3cncc(-n4ccc5c(N)ncnc54)c3)ccc2cc1Br", "IC50": "> 1 µM"}
{"SMILES_STR": "CCc1cc(NCCOC)c2ccc(OCc3cncc(-c4c[nH]c5c(N)ncnc45)c3)cc2n1", "IC50": "< 0.01 µM"}
{"SMILES_STR": "CNc1ccc2ccc(OCc3cccc(-n4ccc5c(N)ncnc54)c3F)cc2n1", "IC50": "0.01 to 0.1 µM"}
{"SMILES_STR": "CNc1ccc2ccc(OCc3cncc(-n4cc(C5CCCC5)c5cncnc54)c3)cc2n1", "IC50": "0.1 to 1 µM"}
{"SMILES_STR": "CCc1cc(NCCCN(C)C)c2ccc(CCc3cncc(-n4ccc5c(N)ncnc54)c3)cc2n1", "IC50": "< 0.01 µM"}
{"SMILES_STR": "Cc1nc(-c2cn(-c3cncc(COc4ccc5ccc(N6CCC6)nc5c4)c3)c3ncnc(N)c23)co1", "IC50": "< 0.01 µM"}
{"SMILES_STR": "CNc1ccc2ccc(OCc3cc(-n4cc(Cl)c5c(N)ncnc54)ccc3F)cc2n1", "IC50": "0.01 to 0.1 µM"}
{"SMILES_STR": "CN(CCS(C)(=O)=O)c1ccc2ccc(OCc3cncc(-n4cc(-c5ccn(C)n5)c5c(N)ncnc54)c3)cc2n1", "IC50": "0.1 to 1 µM"}
{"SMILES_STR": "CCc1cc(N(C)C)c2ccc(OCc3cncc(-n4cc(-c5ccn(C)n5)c5c(N)ncnc54)c3)cc2n1", "IC50": "< 0.01 µM"}
{"SMILES_STR": "Nc1ncnc2c1c(Cl)cn2-c1cccc(COc2ccc3ccc(NCC4CC4)nc3c2)c1", "IC50": "0.1 to 1 µM"}
{"SMILES_STR": "CNc1ccc2ccc(OCc3cc(F)cc(-n4cc(Cl)c5c(N)ncnc54)c3)cc2n1", "IC50": "0.01 to 0.1 µM"}
{"SMILES_STR": "CNc1ccc2ccc(OCc3cncc(-n4cc([C@@H]5CCCO5)c5c(N)ncnc54)c3)cc2n1", "IC50": "< 0.01 µM"}
{"SMILES_STR": "COCc1cn(-c2cncc(COc3ccc4ccc(N5CCC5)nc4c3)c2)c2ncnc(N)c12", "IC50": "< 0.01 µM"}
{"SMILES_STR": "CNc1ccc2ccc(OCc3nnc(-n4cc(Cl)c5c(N)ncnc54)s3)cc2n1", "IC50": "> 1 µM"}
{"SMILES_STR": "CNc1ccc2ccc(OCc3cc(O)cc(-n4cc(Cl)c5c(N)ncnc54)c3)cc2n1", "IC50": "0.01 to 0.1 µM"}
{"SMILES_STR": "Cn1ccc(-c2cn(-c3cncc(COc4ccc(C(=O)N5CCOCC5)c(N)c4)c3)c3ncnc(N)c23)n1", "IC50": "> 1 µM"}
